Taken from PubChem BioAssay (NCATS).

System: CP252
Assay: qHTS profiling for inhibitors of Plasmodium falciparum proliferation (AID 504749); note: nearly all actives have a fitted effect of over 60% in size
Settings: P. falciparum in erythrocytes, SYBR Green DNA, 72 h; series mostly up to 12.8 µM
Inconclusive results are not listed. The source made the active and inactive calls. Calls come from the whole dose curve; as a rule, active = well fitted inhibition curve with a large enough effect; inconclusive = small, poorly fitted or top-dose-only effect; inactive = flat fitted curve, though single readings scatter. Bridge positions count the residues as written; N and C are the ends. Square brackets hold non-standard residues; d marks the D form. Peptide text beside a SMILES is read from it. * marks the point of attachment. Ileψ(thiazoline)Cys = CC[C@H](C)[C@H](N)C1=N[C@H](C(=O)*)CS1; d(aIle) = CC[C@H](C)[C@@H](N)C(=O)O; dOrn = NCCC[C@@H](N)C(=O)O
Hi there, use one of these labels in your reply, thanks! True = active, False = inactive

A selection of reference data follows.
{"columns": ["compound", "assigned-category"],
 "data": [
  ["COc1ccc(CC(N)C(=O)NC2C(CO)OC(n3cnc4c(N(C)C)ncnc43)C2O)cc1 (stereo not drawn)", "True"],
  ["CC(=O)C[C@H](c1ccc([N+](=O)[O-])cc1)c1c(O)c2ccccc2oc1=O", "False"],
  ["CC(C)C1CCC(C(=O)NC(Cc2ccccc2)C(=O)O)CC1 (stereo not drawn)", "False"],
  ["CC(=O)[C@@H]1CC[C@@H]2[C@@H]3C[C@H](C)C4=CC(=O)CC[C@@]4(C)[C@H]3[C@H](O)C[C@]21C", "False"],
  ["O=C1O[C@@H]([C@@H](O)CO)[C@@H](O)[C@H]1O", "False"]
]}

*Q* Record lookup: outcome of this test for `O=C(N/N=C\c1ccc([N+](=O)[O-])o1)c1ccc(O)cc1` ?
*A* True

*Q* Record lookup: outcome of this test for `CC(C)(C)NC[C@H](O)COc1cccc2c1C[C@@H](O)[C@@H](O)C2` ?
*A* False

*Q* Record lookup: outcome of this test for `CN(C)CCOC(=O)[C@@H](c1ccccc1)C1(O)CCCC1` ?
*A* False

*Q* Record lookup: outcome of this test for COC1C=CO[C@@]2(C)Oc3c(C)c(O)c4c(O)c(c(C=NN5CCN(C)CC5)c(O)c4c3C2=O)NC(=O)/C(C)=C\C=CC(C)C(O)[C@@H](C)C(O)C(C)[C@H](OC(C)=O)C1C (stereo partly drawn) ?
*A* True

*Q* Record lookup: outcome of this test for `CN1CCN([C@@H](c2ccccc2)c2ccc(Cl)cc2)CC1` ?
*A* False

*Q* Record lookup: outcome of this test for `C[C@H](Oc1ccccc1)C(=O)N[C@@H]1C(=O)N2[C@@H]1SC(C)(C)[C@@H]2C(=O)O` ?
*A* False

*Q* Record lookup: outcome of this test for CCC(=O)O[C@@]1(C(=O)CCl)C(C)CC2C3CCC4=CC(=O)C=C[C@@]4(C)[C@]3(F)C(O)C[C@]21C (stereo partly drawn) ?
*A* True

*Q* Record lookup: outcome of this test for `CC1(C)S[C@@H]2[C@H](NC(=O)[C@@H](N)c3ccccc3)C(=O)N2[C@H]1C(=O)O[C@H]1OC(=O)c2ccccc21` ?
*A* False

*Q* Record lookup: outcome of this test for `NCc1ccccc1CC(=O)N[C@@H]1C(=O)N2C(C(=O)O)=C(CSc3nnnn3CC(=O)O)CS[C@@H]12` ?
*A* False

*Q* Record lookup: outcome of this test for CC(C)=CCC[C@](C)(O)C1CC=C(C)CC1 (stereo partly drawn) ?
*A* False

*Q* Record lookup: outcome of this test for CC[C@H](C)[C@H](N)C1=N[C@H](C(=O)N[C@@H](CC(C)C)C(=O)N[C@@H](CCC(=O)O)C(=O)N[C@@H](C(=O)N[C@H]2CCCCNC(=O)[C@@H](CC(N)=O)NC(=O)[C@@H](CC(=O)O)NC(=O)[C@@H](Cc3cnc[nH]3)NC(=O)[C@@H](Cc3ccccc3)NC(=O)[C@@H]([C@@H](C)CC)NC(=O)[C@@H](CCCN)NC2=O)[C@@H](C)CC)CS1 ({Ileψ(thiazoline)Cys}-LE[d(aIle)]K[dOrn][d(aIle)][dF][dH][dD][dN]; lactam 4-C) ?
*A* False

*Q* Record lookup: outcome of this test for `C[C@@]12CC[C@H]3[C@@H](CCC4=CC(=O)CC[C@]43C)[C@H]1CC[C@H]2C(=O)CO` ?
*A* False

*Q* Record lookup: outcome of this test for `CC1(C)[C@@H](OC(=O)CCC(=O)O)CC[C@@]2(C)[C@H]1CC[C@@]1(C)[C@H]2C(=O)C=C2[C@H]3C[C@](C)(C(=O)O)CC[C@]3(C)CC[C@@]21C` ?
*A* False

*Q* Record lookup: outcome of this test for `CC[C@H](Cc1c(I)cc(I)c(N)c1I)C(=O)O` ?
*A* False

*Q* Record lookup: outcome of this test for `CC(=O)OCC(=O)[C@@]1(O)CC[C@@H]2[C@H]3CCC4=CC(=O)C=C[C@]4(C)[C@]3(F)[C@@H](O)C[C@@]21C` ?
*A* False

*Q* Record lookup: outcome of this test for `CN1CCO[C@H](c2ccccc2)c2ccccc2C1` ?
*A* False

*Q* Record lookup: outcome of this test for `CC(=C(CCOP(=O)(O)O)SC(=O)c1ccccc1)N(C=O)Cc1cnc(C)nc1N` ?
*A* False

*Q* Record lookup: outcome of this test for Nc1nc2ncc(CNc3ccc(C(=O)NC(CCC(=O)O)C(=O)O)cc3)nc2c(=O)[nH]1 (stereo not drawn) ?
*A* False

*Q* Record lookup: outcome of this test for CCC1OC(=O)C(C)[C@@H](O[C@H]2C[C@@](C)(OC)C(O)C(C)O2)C(C)[C@@H](O[C@@H]2OC(C)CC(N(C)C)C2O)[C@@](C)(O)CC(C)C(=O)[C@@H](C)C(O)[C@]1(C)O (stereo partly drawn) ?
*A* False

*Q* Record lookup: outcome of this test for `CC(C)(C)NC[C@@H](O)COc1ccccc1C1CCCC1` ?
*A* True

*Q* Record lookup: outcome of this test for C[C@]12CCC(=O)C=C1CCC1C2C(=O)C[C@]2(C)C1CC[C@]2(O)C(=O)CO (stereo partly drawn) ?
*A* False

*Q* Record lookup: outcome of this test for CN(C)CCc1c[nH]c2ccc(CC3COC(=O)N3)cc12 (stereo not drawn) ?
*A* False

*Q* Record lookup: outcome of this test for COc1ccc2cc1Oc1ccc(cc1)CC1c3c(cc4c(c3Oc3cc5c(cc3OC)CCN(C)C5C2)OCO4)CCN1C (stereo not drawn) ?
*A* True
